The origin of these recorded values is ChEMBL document CHEMBL1132498.

experiment: Translatory activity was evaluated as ratio of Ki and IC90 *10e-5; format: functional
The threshold is inclusive: Translation of exactly 20 counts as label 1; values below receive label 0.

CCCc1ccc(C[C@@H]2[C@H](O)[C@@H](O)[C@@H](Cc3ccc(CCC)cc3)N(Cc3ccc4[nH]nc(N)c4c3)C(=O)N2Cc2ccc3[nH]nc(N)c3c2)cc1 :: label 1
Nc1[nH]nc2ccc(CN3C(=O)N(Cc4ccc5n[nH]c(N)c5c4)[C@H](Cc4ccccc4)[C@H](O)[C@@H](O)[C@H]3Cc3ccccc3)cc12 :: label 0
CC(C)c1ccc(C[C@@H]2[C@H](O)[C@@H](O)[C@@H](Cc3ccc(C(C)C)cc3)N(Cc3ccc4[nH]nc(N)c4c3)C(=O)N2Cc2ccc3[nH]nc(N)c3c2)cc1 :: label 1
Cc1ccc(C[C@@H]2[C@H](O)[C@@H](O)[C@@H](Cc3ccc(C)cc3)N(Cc3ccc4[nH]nc(N)c4c3)C(=O)N2Cc2ccc3[nH]nc(N)c3c2)cc1 :: label 0

Inquiry: Exam item: decide whether the reported Translation for `Cc1cc(C)cc(C[C@@H]2[C@H](O)[C@@H](O)[C@@H](Cc3cc(C)cc(C)c3)N(Cc3ccc4[nH]nc(N)c4c3)C(=O)N2Cc2ccc3[nH]nc(N)c3c2)c1` is at least 20.
Reply text: label 0

Inquiry: Quick check: does `CC(C)(C)c1cccc(C[C@@H]2[C@H](O)[C@@H](O)[C@@H](Cc3cccc(C(C)(C)C)c3)N(Cc3ccc4[nH]nc(N)c4c3)C(=O)N2Cc2ccc3[nH]nc(N)c3c2)c1` have Translation greater than or equal to 20?
Reply text: label 1

Inquiry: hey, is Translation for this one >= 20? `CCc1ccc(C[C@@H]2[C@H](O)[C@@H](O)[C@@H](Cc3ccc(CC)cc3)N(Cc3ccc4[nH]nc(N)c4c3)C(=O)N2Cc2ccc3[nH]nc(N)c3c2)cc1`
Reply text: label 1

###

experiment: Translatory activity was evaluated as ratio of Ki and IC90 *10e-5; type: functional
READOUT_NAME: Translation

Cc1ccc(C)c(C[C@@H]2[C@H](O)[C@@H](O)[C@@H](Cc3cc(C)ccc3C)N(Cc3ccc4[nH]nc(N)c4c3)C(=O)N2Cc2ccc3[nH]nc(N)c3c2)c1 :: 11
CCCCc1ccc(C[C@@H]2[C@H](O)[C@@H](O)[C@@H](Cc3ccc(CCCC)cc3)N(Cc3ccc4[nH]nc(N)c4c3)C(=O)N2Cc2ccc3[nH]nc(N)c3c2)cc1 :: 94

Working through the 2 compounds below one at a time, give Translation for each.
1. CC(C)(C)c1ccc(C[C@@H]2[C@H](O)[C@@H](O)[C@@H](Cc3ccc(C(C)(C)C)cc3)N(Cc3ccc4[nH]nc(N)c4c3)C(=O)N2Cc2ccc3[nH]nc(N)c3c2)cc1
2. Cc1cccc(C[C@@H]2[C@H](O)[C@@H](O)[C@@H](Cc3cccc(C)c3)N(Cc3ccc4[nH]nc(N)c4c3)C(=O)N2Cc2ccc3[nH]nc(N)c3c2)c1

Reply text:
1. 190
2. 1.5
